biological target: CDK18/Cyclin Y (Homo sapiens); experiment: NanoBRET live-cell target engagement, CDK18-NanoLuc/Cyclin Y in HEK-293; format: binding; details: 10µM; average of experiments
Sequence (Q07002 whole entry): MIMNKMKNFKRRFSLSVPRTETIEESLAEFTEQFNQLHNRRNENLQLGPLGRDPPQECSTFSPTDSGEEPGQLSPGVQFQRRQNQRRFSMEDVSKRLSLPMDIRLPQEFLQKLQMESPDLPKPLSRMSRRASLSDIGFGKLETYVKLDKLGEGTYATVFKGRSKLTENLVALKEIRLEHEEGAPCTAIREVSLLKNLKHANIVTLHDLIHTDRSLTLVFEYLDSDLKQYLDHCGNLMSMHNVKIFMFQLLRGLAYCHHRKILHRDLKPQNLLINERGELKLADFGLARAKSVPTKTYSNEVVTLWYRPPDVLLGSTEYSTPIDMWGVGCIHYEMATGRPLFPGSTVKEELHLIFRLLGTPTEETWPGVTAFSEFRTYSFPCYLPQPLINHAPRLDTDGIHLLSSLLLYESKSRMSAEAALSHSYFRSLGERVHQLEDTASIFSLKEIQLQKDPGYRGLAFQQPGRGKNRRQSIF
Sequence (Q8ND76 whole entry partner): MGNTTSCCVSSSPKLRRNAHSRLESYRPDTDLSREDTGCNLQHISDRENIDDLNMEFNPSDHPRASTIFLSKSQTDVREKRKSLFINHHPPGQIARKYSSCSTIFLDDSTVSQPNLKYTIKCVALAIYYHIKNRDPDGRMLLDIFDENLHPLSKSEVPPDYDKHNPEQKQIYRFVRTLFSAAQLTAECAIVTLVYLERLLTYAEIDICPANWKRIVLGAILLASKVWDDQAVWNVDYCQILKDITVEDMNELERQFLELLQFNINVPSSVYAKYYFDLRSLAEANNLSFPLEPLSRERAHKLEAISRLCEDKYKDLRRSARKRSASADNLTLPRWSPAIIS
Exercise: state measured CDK18/Y Inhibition at 10µM (%) for each of the compounds provided.
State the result as a value with its unit after it.

Need CDK18/Y Inhibition at 10µM (%) of Cc1c(Br)c(Br)c2c3c1nc(N1CCNCC1)n3CCC2.Cl [SEL 120-34A] , thanks.
39.4%

# lookup: CDK18/Y Inhibition at 10µM (%) of O=C1NC(=NCc2cccs2)S/C1=C\c1ccc2ncccc2c1
16.9%

Quick one: CDK18/Y Inhibition at 10µM (%) for CN(C)C/C=C/C(=O)Nc1ccc(C(=O)Nc2cccc(Nc3ncc(Cl)c(-c4c[nH]c5ccccc45)n3)c2)cc1 ?
48.6%

Item under review: O=C1NCCc2[nH]c(-c3ccncc3)cc21 . Reported CDK18/Y Inhibition at 10µM (%)?
28.3%

====

target: CDK3/Cyclin E1 (Homo sapiens, UniProt Q00526); assay: NanoBRET live-cell target engagement, CDK3-NanoLuc/Cyclin E1 in HEK-293; assay type: binding; conditions: CDK3/E1; 10µM; read-out: Inhibition at 10µM (%) Replicate 2
Sequence (Q00526 whole entry): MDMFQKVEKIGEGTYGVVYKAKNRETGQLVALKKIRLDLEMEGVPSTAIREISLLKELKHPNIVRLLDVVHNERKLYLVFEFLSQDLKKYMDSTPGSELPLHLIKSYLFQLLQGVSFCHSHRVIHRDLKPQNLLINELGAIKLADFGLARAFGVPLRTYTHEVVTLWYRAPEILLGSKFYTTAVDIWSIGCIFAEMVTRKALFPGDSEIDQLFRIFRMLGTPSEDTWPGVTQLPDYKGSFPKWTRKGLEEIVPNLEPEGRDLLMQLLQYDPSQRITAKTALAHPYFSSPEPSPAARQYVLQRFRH
Sequence (P24864 whole entry partner): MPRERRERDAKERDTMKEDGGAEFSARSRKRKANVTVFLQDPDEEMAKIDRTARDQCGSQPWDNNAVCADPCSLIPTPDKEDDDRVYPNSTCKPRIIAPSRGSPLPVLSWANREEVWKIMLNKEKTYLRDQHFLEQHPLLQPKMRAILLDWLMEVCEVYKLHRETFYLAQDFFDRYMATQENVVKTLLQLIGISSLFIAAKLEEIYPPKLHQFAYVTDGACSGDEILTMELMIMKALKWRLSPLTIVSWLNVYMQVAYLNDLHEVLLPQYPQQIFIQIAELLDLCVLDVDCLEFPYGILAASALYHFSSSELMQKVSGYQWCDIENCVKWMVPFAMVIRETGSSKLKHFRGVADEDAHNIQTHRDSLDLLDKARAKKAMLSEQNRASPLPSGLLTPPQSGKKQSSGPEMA
reported_endpoint: inhibition at 10 µM (%)
Answer with a number only, understood to be in %.

Quick check: inhibition at 10 µM of CCN1CCN(Cc2ccc(NC(=O)Nc3ccc(Oc4cc(NC)ncn4)cc3)cc2C(F)(F)F)CC1 [AST-487] ?
85.5

Consider the compound COc1cc(F)ccc1-c1ncnc(Nc2cccc(C[S@](C)(=N)=O)c2)n1 [Atuveciclib] and give its measured inhibition at 10 µM.
49.6

Look up inhibition at 10 µM for this compound: CCCCOc1c(C(=O)c2c(F)cc(C)cc2F)c[nH]c2nncc1-2 [BMS-265246]
66

Reported inhibition at 10 µM, compound COc1cc(F)ccc1-c1cc(Nc2cc(CS(C)(=N)=O)ccn2)ncc1F (stereo not drawn) [BAY-1251152] : ____
80

Would you mind telling me what inhibition at 10 µM value was observed for CC(C)c1cnn2c(NCc3ccccc3)cc(NCCCCCCN)nc12 [BS-181] ?
59.7

Fill in the blank: the reported inhibition at 10 µM of CCN1CCN(Cc2ccc(Nc3ncc(F)c(-c4cc(F)c5nc(C)n(C(C)C)c5c4)n3)nc2)CC1 [Abemaciclib] is ____.
62.3

====

biological target: CDK14/Cyclin Y (Homo sapiens); assay: NanoBRET live-cell target engagement, CDK14-NanoLuc/Cyclin Y in HEK-293; format: binding; conditions: CDK14/Y; average (± SEM where n=3); read-out: IC50
Sequence (O94921 whole entry): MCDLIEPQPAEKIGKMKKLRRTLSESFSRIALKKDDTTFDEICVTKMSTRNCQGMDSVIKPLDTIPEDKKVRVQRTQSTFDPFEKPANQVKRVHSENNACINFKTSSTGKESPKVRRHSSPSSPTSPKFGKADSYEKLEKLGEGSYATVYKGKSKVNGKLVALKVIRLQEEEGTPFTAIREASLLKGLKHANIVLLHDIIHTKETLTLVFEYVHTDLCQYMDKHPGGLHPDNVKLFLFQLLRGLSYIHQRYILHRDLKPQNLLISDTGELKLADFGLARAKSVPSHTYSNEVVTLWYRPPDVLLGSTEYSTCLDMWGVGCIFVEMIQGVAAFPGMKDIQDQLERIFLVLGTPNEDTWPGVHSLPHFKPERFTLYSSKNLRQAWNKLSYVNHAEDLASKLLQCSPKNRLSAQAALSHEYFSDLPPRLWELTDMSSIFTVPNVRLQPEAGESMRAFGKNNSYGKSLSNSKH
Sequence (Q8ND76 whole entry partner): as the sequence (Q8ND76 whole entry partner) above
reported_endpoint: IC50 (nM)
Only the number, expressed in nM, is required.

Would you kindly share the measured IC50 for CNc1nc(C)c(-c2nc(Nc3cccc(S(N)(=O)=O)c3)ncc2F)s1 ?
48

Fill in the blank: the reported IC50 of CN1CCN(c2ccc(Nc3ncc4cc(C#N)c(=O)n(C5CCCC5)c4n3)cc2)CC1 is ____.
120

Need IC50 of CC(C)c1c2cc(-c3ccnc(N[C@H]4CC[C@H](NC5CCOCC5)CC4)n3)ccc2nn1C , thanks.
510

# get_value(readout='IC50', item= CS(=O)(=O)N1CCC(NC(=O)c2[nH]ncc2NC(=O)c2c(Cl)cccc2Cl)CC1 )
470
